- TARGET OF ASSAY: HER-2 (Homo sapiens)
- Construct: P00533 (Epidermal growth factor receptor)
- Sequence (P04626 720-987 limits assumed): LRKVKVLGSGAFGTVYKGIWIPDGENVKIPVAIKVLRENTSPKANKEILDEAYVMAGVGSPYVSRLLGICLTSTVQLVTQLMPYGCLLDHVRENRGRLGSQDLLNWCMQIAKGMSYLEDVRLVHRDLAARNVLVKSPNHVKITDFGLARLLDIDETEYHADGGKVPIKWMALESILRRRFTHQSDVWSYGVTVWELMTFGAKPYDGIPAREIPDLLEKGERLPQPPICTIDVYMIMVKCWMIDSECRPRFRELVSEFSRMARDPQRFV
- ASSAY EXPLANATION: Assay for modulation of HER-2 activity in whole cells (ELISA)
- EXPERIMENTAL PARAMETERS: EGFR/HER-2chimera/#T3-C7 cell lines, EGF stimulated; read-out: HER-2 kinase IC50
pIC50: −log10 of the molar value.
PROPERTY MEASURED: pIC50

(1) Cc1cc(C)c(C=C2C(=O)Nc3ncnc(Nc4ccc(F)c(Cl)c4)c32)[nH]1
(2) C#Cc1cccc(Nc2ncnc3c2C(=Cc2[nH]c(C)c(CCCN4CCOCC4)c2C)C(=O)N3)c1
Query: Input pair: 1 , 2 . Output: entry with lower pIC50. Kindly give the label for the entry you pick.
Result: 2
